Record set: pIC50 | Sodium-dependent dopamine transporter (Rattus norvegicus, UniProt P23977) | literature, multiple sources.
pIC50: −log10 of the molar value.
Quantity kind: pIC50

P = C[C@@H]1CN(CCCn2c3ccccc3c3ccccc32)C[C@H](C)N1
Q = Cl.Cl.OCCN1CCN(C2CC(c3ccc(F)cc3)c3ccc(C(F)(F)F)cc32)CC1 (cis isomer)
Task: Response body: label of entry with the larger pIC50; valid values P , Q . Write the label of whichever entry you select.
Output: P
(P: 7.24, Q: 7.03)

1 = CN1CCN(C2CC(c3ccc(F)cc3)c3ccc(F)cc32)CC1.Cl.Cl (stereo in doubt; 55)
2 = CN(CCC1CCN(Cc2ccc(F)cc2)CC1)C(c1ccccc1)c1ccccc1
3 = CNCCC[C@H](c1ccc(Cl)c(Cl)c1)c1cccc2[nH]ccc12
Task: # rank by pIC50, ascending (min first) Would you mind listing the labels in the order asked for?
Output: 2, 1, 3

a = CCN1CCc2c(sc3ccccc23)C(c2cccc([N+](=O)[O-])c2)C1 (stereo unspecified)
b = c1ccc(CCN2CCC(COC(c3ccccc3)c3ccccc3)CC2)cc1
c = Fc1ccc(C(OCC2CCN(CCCc3ccccc3)CC2)c2ccc(F)cc2)cc1
d = c1ccc(CN2CCC(COC(c3ccccc3)c3ccccc3)CC2)cc1
e = OC1c2ccccc2-c2ccccc21
Task: Endpoint returns the given molecules ordered by ascending pIC50. Sort the labels as requested; that list is your answer.
Output: e, d, a, b, c
(e: 5.05, d: 6.15, a: 6.60, b: 6.97, c: 7.89)

P = CN1CCc2c([nH]c3ccccc23)C(c2ccccc2)C1 (stereo unspecified)
Q = Fc1ccc(N(CCCN2CCN(Cc3ccccc3)CC2)c2ccc(F)cc2)cc1
R = OCCN1CCN(C2CC(c3ccc(F)cc3)c3ccc(C(F)(F)F)cc32)CC1 (trans isomer)
S = COc1ccc(CNC2CCC(C(c3ccccc3)c3ccccc3)OC2)cc1 (racemic)
T = OC(c1ccc(Cl)cc1)c1ccc(C2=NCCN2)cc1 (stereo unspecified)
Task: In this exercise, place the 5 molecules in ascending sequence of their recorded pIC50. Respond with an ordered listing of the labels, as requested.
Output: T, R, P, S, Q
(T: 5.80, R: 6.28, P: 6.74, S: 7.08, Q: 7.53)

1 = Clc1ccc(Oc2ccccc2C2=NCCN2)cc1
2 = CNCCC[C@H](c1ccc(Cl)c(Cl)c1)c1cccc2ccccc12
3 = c1ccc(CCCN2CCC(COC(c3ccccc3)c3ccccc3)CC2)cc1
Task: Rank the items in ascending order with respect to pIC50. In your reply, arrange the labels in the requested order.
Output: 1, 2, 3

###

pIC50: −log10 of the molar value.
# literature pull: Sodium-dependent dopamine transporter (Rattus norvegicus, UniProt P23977) pIC50
# Sequence (P23977 whole entry): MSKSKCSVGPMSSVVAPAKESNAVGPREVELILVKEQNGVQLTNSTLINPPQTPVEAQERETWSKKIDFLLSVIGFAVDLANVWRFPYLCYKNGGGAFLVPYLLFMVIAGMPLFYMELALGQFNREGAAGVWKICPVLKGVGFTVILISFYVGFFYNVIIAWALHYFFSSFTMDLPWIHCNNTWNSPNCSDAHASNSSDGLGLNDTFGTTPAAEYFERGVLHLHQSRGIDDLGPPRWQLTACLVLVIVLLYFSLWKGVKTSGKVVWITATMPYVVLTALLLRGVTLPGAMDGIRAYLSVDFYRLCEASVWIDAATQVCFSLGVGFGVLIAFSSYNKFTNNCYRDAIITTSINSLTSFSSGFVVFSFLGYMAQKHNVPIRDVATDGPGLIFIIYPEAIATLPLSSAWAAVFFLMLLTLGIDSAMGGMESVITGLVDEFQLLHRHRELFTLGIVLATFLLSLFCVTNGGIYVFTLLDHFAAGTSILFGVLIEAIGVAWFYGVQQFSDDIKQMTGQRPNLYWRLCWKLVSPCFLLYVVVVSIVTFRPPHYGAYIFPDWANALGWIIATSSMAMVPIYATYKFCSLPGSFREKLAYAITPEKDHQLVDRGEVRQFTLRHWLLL
Quantity kind: pIC50

I = CC(OCCC1CCN(Cc2ccc(F)cc2)CC1)c1ccccc1 (stereo not drawn)
II = Nc1nnc(N2CCC(N3CCOC[C@@H]3Cc3ccc(Cl)cc3)CC2)[nH]1
III = Fc1ccc(N(CCCN2CCN(CCc3ccc(N=C=S)c(I)c3)CC2)c2ccc(F)cc2)cc1
IV = Fc1ccc(C(OCC2CCN(Cc3ccccc3)CC2)c2ccc(F)cc2)cc1
Task: Reorder the items by pIC50, least to greatest. Use the labels to give the requested order.
Output: II, I, IV, III
(II: 5.10, I: 6.12, IV: 6.90, III: 7.18)

A = CC1(C)COC(c2ccccc2C(=O)c2ccc(Cl)cc2)=N1
B = CNCCC[C@@H](c1cccs1)c1cccc2[nH]ccc12
C = O=C(c1ccc(Cl)cc1)c1cccc(C2=NCCN2)c1
Task: Hey, quick one: sort these by pIC50, largest value first please. // ordering of labels required in reply
Output: A, B, C

I = Fc1ccc(N(CCCN2CCN(CCCc3ccc(N=C=S)cc3)CC2)c2ccc(F)cc2)cc1
II = CNCC[C@H](c1ccc(Cl)c(Cl)c1)c1cccc2ccccc12
III = [N-]=[N+]=Nc1ccc(CN2CCN(CCCN(c3ccc(F)cc3)c3ccc(F)cc3)CC2)cc1I
IV = COc1c(O)c2c3c(nccc3c1OC)C(C)(C)c1cc(O)ccc1-2
V = CC1(C)COC(c2ccc(C(=O)c3ccc(Cl)cc3)cc2)=N1
Task: Please order the records by their reported pIC50, lowest number first. Reply with the item labels sorted in the order that was asked for.
Output: IV, V, III, I, II
(IV: 4.61, V: 5.72, III: 6.62, I: 7.00, II: 8.01)
